system: HepG2; experiment: Cytotoxicity against human HepG2 cells assessed as inhibition of cell viability after 24 hrs by MTT assay; format: functional, cell-based; conditions: HepG2, 24 h
pIC50: −log10 of the molar value.
Measured pIC50, listed per entry.
Assay Readout: pIC50

# Molecule, Assay Readout, Result Value
measured = [
    ("C=C(C)C(O)CC(OC(=O)/C(C)=C\\C)C(=C)[C@H]1[C@H](O)[C@H](OC(=O)/C(C)=C\\C)[C@@](C)(O)[C@H](O)[C@@H]1OC(=O)/C=C(\\C)CC (some centres undefined)", "pIC50", 4.15),
    ("C=C(C(CC(O)C(C)(C)OC)OC(=O)/C(C)=C\\C)[C@H]1[C@H](OC(=O)/C(C)=C\\C)[C@H]2O[C@@]2(C)[C@@H](OC(=O)/C(C)=C\\C)[C@H]1OC(C)=O (some centres undefined)", "pIC50", 4.01),
    ("C=C(C(CC(O)C(C)(C)O)OC(=O)/C(C)=C\\C)[C@H]1[C@H](OC(=O)/C(C)=C\\C)[C@H]2O[C@@]2(C)[C@@H](OC(=O)/C(C)=C\\C)[C@H]1OC(C)=O (some centres undefined)", "pIC50", 4.39),
    ("COc1cccc2c1C(=O)c1c(O)c3c(c(O)c1C2=O)C[C@@](O)(C(=O)CO)C[C@@H]3O[C@H]1C[C@H](N)[C@H](O)[C@H](C)O1", "pIC50", 4.63),
]
